Tested on: CCRF-CEM leukemia
Test: NCI-60 one-dose screen, 48 h (100 = growth as untreated, 0 = no growth, -100 = all killed)
Conditions: 10 µM unless noted
The panel holds about 83,000 compounds, 20% with a hit somewhere; the sample as a whole holds those more often.
List of growth values.
Measured Endpoint: growth (%)

>>> numeric_readout("O=C1NC(=C(Cl)Cl)/C(=N\\S(=O)(=O)NCc2ccccc2)N1")
75
>>> numeric_readout("O=C1C(Cl)=C(Nc2ccc(S(=O)(=O)N3CCOCC3)cc2)C(=O)c2ccccc21")
6.98
>>> numeric_readout("CCOC(=O)C/C(=N\\Nc1cc(=O)[nH]c2ccc(Br)cc12)C(=O)OCC")
-36.7
>>> numeric_readout("CCSc1oc(-c2ccccc2)nc1[P+](c1ccccc1)(c1ccccc1)c1ccccc1")
11.1
>>> numeric_readout("Cc1ccc(CNc2ccc3nc(CCC4CCCCC4)[nH]c3c2)cc1")
39.9
>>> numeric_readout("CCOC(=O)c1cc2c(n1C)-c1nc(NC(C)=O)sc1CCC2")
73.8
>>> numeric_readout("[O-]/[N+](=C\\c1ccc(-n2cc(Cc3ccccc3Cc3cn(-c4ccc(/C=[N+](/[O-])c5ccccc5)cc4)nn3)nn2)cc1)c1ccccc1")
103
>>> numeric_readout("O=C(Cn1cc(CSc2nc3ccccc3o2)nn1)Nc1ccc(F)cc1F")
113
>>> numeric_readout("CNC(=O)c1ccccc1Oc1nc(Nc2cc(OC)c(OC)c(OC)c2)ncc1Br")
59.5
>>> numeric_readout("O=S(=O)(NCCCNc1nccc(-c2c(-c3ccc(F)c(O)c3)nc3occn23)n1)c1ccc(Cl)cc1")
47.9
>>> numeric_readout("COc1cc(C2CC(c3ccc(Nc4nc(Nc5ccc(Cl)cc5)nc(Nc5ccc(Cl)cc5)n4)cc3)=NN2C(C)=O)cc(OC)c1OC (centres undefined)")
101
>>> numeric_readout("COc1ccc(F)cc1/C=C/C(=O)/C=C(/C=C/c1cc(F)ccc1OC)OB(F)F")
-14.7
>>> numeric_readout("COc1ccc(C(=O)c2cc3c(N)c(C(=O)Nc4ccc(C)cc4)sc3nc2C)cc1")
15.7
>>> numeric_readout("COC(=O)c1cc(N=C2NC(=O)/C(=C/C=C/c3ccccc3)S2)ccc1O")
20.7
>>> numeric_readout("Cc1ccc(C(=O)c2ccc(CC(=O)N/N=C/c3ccccc3O)n2C)cc1")
54.1
>>> numeric_readout("COC1=CC(c2ccc[nH]2)=N/C1=C\\c1[nH]c(C)c(CC(=O)OCc2ccccc2)c1CCC(=O)OCc1ccccc1")
-0.154
>>> numeric_readout("Cc1sc2nc(NCCc3c[nH]c4ccc(Cl)cc34)[nH]c(=O)c2c1C")
33.9
>>> numeric_readout("N#Cc1c(-c2ccccc2)[nH]c2ncc(-c3ccccc3)n2c1=O")
104
>>> numeric_readout("O=C(Nc1nc2cc(C(=O)N3CCN(C(c4ccccc4)c4ccccc4)CC3)ccc2o1)c1ccc(NC2CCCCC2)c([N+](=O)[O-])c1")
28.3
